Taken from patent US9309242B2.

target.of.assay: FGFR1 (h) (Homo sapiens)
assay.method.text: FGFR1 (enzymatic assay), TR-FRET
Assay type: biochemical
condition.set: average values if tested multiple times, read-out: FGFR 1 pIC50 (converted)
# reported IC50; entries follow
Field format: number, assumed nM, no unit text.

For orientation, consider the following solved cases.
molecule	endpoint.name	observed
COc1cc(OC)c(F)c(N(CCNC(C)C)c2ccc3ncc(-c4cnn(C)c4)nc3n2)c1	IC50	2
COc1cc(OC)c(F)c(N(Cc2nc[nH]n2)c2ccc3ncc(-c4cnn(C)c4)nc3n2)c1	IC50	1.26
COc1cc(OC)c(F)c(N(CCNC(C)C)c2ccc3ncc(-c4cnn(C)c4)nc3n2)c1F	IC50	1.58
COc1cc(OC)cc(N(CC2CCC(=O)N2)c2ccc3ncc(-c4cnn(C)c4)nc3n2)c1 (stereo not shown) [Compound 49]	IC50	3.24
COc1cc(OC)c(F)c(N(CC2CCC(=O)N2)c2ccc3ncc(-c4cnn(C)c4)nc3n2)c1F (stereo not shown) [Compound 192]	IC50	1.15
COc1cc(OC)cc(N(Cc2nc[nH]n2)c2ccc3ncc(-c4cnn(C)c4)nc3n2)c1	IC50	1.07

Now consider the entry below.
input: Item COc1cc(/N=c2\ccc3ncc(-c4cnn(C)c4)nc3n2CC2COC(=O)N2)c(F)c(OC)c1 (single isomer, unassigned) has what recorded IC50?
output: 1.26

====

Tested on: Ba/F3-KDR-transfected cells
assay.method.text: Ba/F3-KDR (plus IL3) cellular proliferation assay, counterscreen with 10 ng/ml murine IL3
Type: cell-based
condition.set: plus IL3 (10 ng/ml murine IL3, counterscreen)
Where a name gives a salt, the structure may show the parent alone.
endpoint.name: BAF3-KDR (PLUS IL3) pIC50

Some solved cases for reference:
molecule	endpoint.name	observed
COc1cc(OC)cc(N(Cc2ncc[nH]2)c2ccc3ncc(-c4cnn(C)c4)nc3n2)c1 [24-fumarate salt]	BAF3-KDR (PLUS IL3) pIC50	<5
COCC(O)CN(c1ccc2ncc(-c3cnn(C)c3)nc2n1)c1cc(OC)cc(OC)c1F (single isomer, unassigned) [Compound 59]	BAF3-KDR (PLUS IL3) pIC50	<5

input: I would be grateful if you could share the reported BAF3-KDR (PLUS IL3) pIC50 for COc1cc(OC)c(F)c(N(CC(O)COC(C)C)c2ccc3ncc(-c4cnn(C)c4)nc3n2)c1 (single isomer, unassigned) [Compound 79] .
output: <5

====

target.of.assay: Ba/F3-FGFR3-transfected cells (Homo sapiens, UniProt P22607)
Construct: BAF3-FGFR3 (MIN IL3) pIC50; other: minus IL3
Sequence (P22607 whole entry, change not shown): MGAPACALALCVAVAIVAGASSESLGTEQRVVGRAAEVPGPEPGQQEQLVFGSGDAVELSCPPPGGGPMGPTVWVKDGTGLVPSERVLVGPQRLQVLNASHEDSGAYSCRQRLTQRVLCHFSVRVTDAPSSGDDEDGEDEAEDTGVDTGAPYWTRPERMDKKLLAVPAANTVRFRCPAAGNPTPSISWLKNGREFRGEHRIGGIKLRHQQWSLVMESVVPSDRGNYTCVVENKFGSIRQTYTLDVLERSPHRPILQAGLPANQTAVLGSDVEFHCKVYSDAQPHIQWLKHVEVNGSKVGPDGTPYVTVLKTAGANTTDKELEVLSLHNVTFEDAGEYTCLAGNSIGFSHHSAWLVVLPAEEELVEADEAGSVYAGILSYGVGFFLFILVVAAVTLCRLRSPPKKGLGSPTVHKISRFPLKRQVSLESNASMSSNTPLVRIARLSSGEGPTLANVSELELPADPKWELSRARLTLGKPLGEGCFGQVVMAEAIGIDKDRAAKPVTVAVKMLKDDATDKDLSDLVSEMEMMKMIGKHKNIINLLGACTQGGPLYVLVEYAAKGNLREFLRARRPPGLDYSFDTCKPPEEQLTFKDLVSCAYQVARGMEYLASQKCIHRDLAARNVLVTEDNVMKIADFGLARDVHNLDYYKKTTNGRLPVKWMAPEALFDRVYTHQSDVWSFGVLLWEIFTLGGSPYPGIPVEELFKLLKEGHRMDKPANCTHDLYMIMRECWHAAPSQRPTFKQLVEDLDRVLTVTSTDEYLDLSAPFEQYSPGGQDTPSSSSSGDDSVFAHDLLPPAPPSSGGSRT
assay.method.text: Ba/F3-FGFR3 (minus IL3) cellular proliferation assay, Alamar Blue
Format: cell-based
endpoint.name: BAF3-FGFR3 (MIN IL3) pIC50

Example cases with answers are listed next.
compound	BAF3-FGFR3 (MIN IL3) pIC50
COc1cc(OC)cc(N(CC(O)C(F)(F)F)c2ccc3ncc(-c4cnn(C)c4)nc3n2)c1 (single isomer, unassigned) [Compound 34]	6.97
COc1cc(OC)cc(N(Cc2nnco2)c2ccc3ncc(-c4cnn(C)c4)nc3n2)c1	~6.68
CNCCN(c1ccc2ncc(-c3cnn(C)c3)nc2n1)c1c(F)c(OC)cc(OC)c1F	~8.04
CNCCN(c1ccc2ncc(-c3cnn(C)c3)nc2n1)c1c(Cl)c(OC)cc(OC)c1Cl	6.67
COc1cc(OC)c(F)c(N(CC(O)COC(C)C)c2ccc3ncc(-c4cnn(CC(O)COC(C)C)c4)nc3n2)c1 (single isomer, unassigned)	7.42

input: Suppose we examine the compound `COc1cc(OC)c(F)c(N(CC(=O)N2CCNCC2)c2ccc3ncc(-c4cnn(C)c4)nc3n2)c1` ; what BAF3-FGFR3 (MIN IL3) pIC50 value has been reported?
output: ~6.17

input: What value of BAF3-FGFR3 (MIN IL3) pIC50 has been reported for the following compound? COc1cc(OC)c(F)c(N(CC2CCC(=O)N2CCO)c2ccc3ncc(-c4cnn(C)c4)nc3n2)c1 (single isomer, unassigned) [Compound 218]
output: ~7.64

====

target.of.assay: FGFR2 (h) (Homo sapiens, UniProt P21802)
Sequence (P21802 22-821): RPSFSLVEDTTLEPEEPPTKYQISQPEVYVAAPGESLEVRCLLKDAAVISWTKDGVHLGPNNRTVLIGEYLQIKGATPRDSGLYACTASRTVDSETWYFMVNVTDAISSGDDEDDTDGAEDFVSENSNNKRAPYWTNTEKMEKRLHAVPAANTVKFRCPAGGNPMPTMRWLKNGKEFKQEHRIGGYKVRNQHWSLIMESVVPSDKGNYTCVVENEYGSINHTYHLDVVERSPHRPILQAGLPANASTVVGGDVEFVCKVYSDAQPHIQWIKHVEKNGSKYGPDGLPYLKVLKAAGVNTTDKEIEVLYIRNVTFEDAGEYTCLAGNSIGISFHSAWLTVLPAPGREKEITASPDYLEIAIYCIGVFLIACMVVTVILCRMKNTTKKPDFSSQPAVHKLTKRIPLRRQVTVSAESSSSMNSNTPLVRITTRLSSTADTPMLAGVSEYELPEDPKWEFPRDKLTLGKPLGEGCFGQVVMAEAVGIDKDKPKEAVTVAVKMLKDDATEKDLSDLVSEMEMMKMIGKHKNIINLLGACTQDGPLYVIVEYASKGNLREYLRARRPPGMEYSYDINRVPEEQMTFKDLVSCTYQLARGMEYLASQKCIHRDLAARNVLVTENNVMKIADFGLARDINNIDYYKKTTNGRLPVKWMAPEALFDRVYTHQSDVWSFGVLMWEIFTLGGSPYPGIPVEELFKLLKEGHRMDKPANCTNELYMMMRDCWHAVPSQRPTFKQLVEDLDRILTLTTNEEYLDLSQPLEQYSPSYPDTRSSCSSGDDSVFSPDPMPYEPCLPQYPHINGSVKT
assay.method.text: FGFR2 (enzymatic assay), TR-FRET
Assay type: biochemical
condition.set: enzymatic assay; read-out: FGFR 2 pIC50 (converted)
Property: IC50; scope: individual compounds
Report the figure in nM without appending any unit label.

For orientation, consider the following solved cases.
compound	observed
COc1cc(OC)c(F)c(N(CC2CCC(=O)N2CCO)c2ccc3ncc(-c4cnn(C)c4)nc3n2)c1 (single isomer, unassigned) [Compound 218]	5.5
COc1cc(/N=c2\ccc3ncc(-c4cnn(CC(C)(C)O)c4)nc3n2CC(C)(C)O)c(F)c(OC)c1 (single isomer, unassigned)	2.51
COc1cc(OC)cc(N(c2ccc3ncc(-c4cnn(C)c4)nc3n2)C(C)c2ncc[nH]2)c1 (stereo not shown)	2.04
COc1cc(OC)c(F)c(N(CC(=O)N2CCNCC2)c2ccc3ncc(-c4cnn(C)c4)nc3n2)c1	7.24
COc1cc(OC)c(F)c(N(Cc2c[nH]c(C)n2)c2ccc3ncc(-c4cnn(C)c4)nc3n2)c1	2.04

input: May I ask what IC50 has been recorded for COc1cc(/N=c2\ccc3ncc(-c4cnn(C)c4)nc3n2CC2CCC(=O)N2)cc(OC)c1 (stereo not shown) ?
output: 3.63

input: Name the recorded IC50 for `COc1cc(/N=c2\ccc3ncc(-c4cnn(C)c4)nc3n2Cc2cc(C)no2)c(F)c(OC)c1` .
output: 2.19

====

target.of.assay: Ba/F3-KDR-transfected cells (Homo sapiens, UniProt P35968)
Construct: BAF3-KDR (MIN IL3) pIC50; other: minus IL3
Sequence (P35968 whole entry, change not shown): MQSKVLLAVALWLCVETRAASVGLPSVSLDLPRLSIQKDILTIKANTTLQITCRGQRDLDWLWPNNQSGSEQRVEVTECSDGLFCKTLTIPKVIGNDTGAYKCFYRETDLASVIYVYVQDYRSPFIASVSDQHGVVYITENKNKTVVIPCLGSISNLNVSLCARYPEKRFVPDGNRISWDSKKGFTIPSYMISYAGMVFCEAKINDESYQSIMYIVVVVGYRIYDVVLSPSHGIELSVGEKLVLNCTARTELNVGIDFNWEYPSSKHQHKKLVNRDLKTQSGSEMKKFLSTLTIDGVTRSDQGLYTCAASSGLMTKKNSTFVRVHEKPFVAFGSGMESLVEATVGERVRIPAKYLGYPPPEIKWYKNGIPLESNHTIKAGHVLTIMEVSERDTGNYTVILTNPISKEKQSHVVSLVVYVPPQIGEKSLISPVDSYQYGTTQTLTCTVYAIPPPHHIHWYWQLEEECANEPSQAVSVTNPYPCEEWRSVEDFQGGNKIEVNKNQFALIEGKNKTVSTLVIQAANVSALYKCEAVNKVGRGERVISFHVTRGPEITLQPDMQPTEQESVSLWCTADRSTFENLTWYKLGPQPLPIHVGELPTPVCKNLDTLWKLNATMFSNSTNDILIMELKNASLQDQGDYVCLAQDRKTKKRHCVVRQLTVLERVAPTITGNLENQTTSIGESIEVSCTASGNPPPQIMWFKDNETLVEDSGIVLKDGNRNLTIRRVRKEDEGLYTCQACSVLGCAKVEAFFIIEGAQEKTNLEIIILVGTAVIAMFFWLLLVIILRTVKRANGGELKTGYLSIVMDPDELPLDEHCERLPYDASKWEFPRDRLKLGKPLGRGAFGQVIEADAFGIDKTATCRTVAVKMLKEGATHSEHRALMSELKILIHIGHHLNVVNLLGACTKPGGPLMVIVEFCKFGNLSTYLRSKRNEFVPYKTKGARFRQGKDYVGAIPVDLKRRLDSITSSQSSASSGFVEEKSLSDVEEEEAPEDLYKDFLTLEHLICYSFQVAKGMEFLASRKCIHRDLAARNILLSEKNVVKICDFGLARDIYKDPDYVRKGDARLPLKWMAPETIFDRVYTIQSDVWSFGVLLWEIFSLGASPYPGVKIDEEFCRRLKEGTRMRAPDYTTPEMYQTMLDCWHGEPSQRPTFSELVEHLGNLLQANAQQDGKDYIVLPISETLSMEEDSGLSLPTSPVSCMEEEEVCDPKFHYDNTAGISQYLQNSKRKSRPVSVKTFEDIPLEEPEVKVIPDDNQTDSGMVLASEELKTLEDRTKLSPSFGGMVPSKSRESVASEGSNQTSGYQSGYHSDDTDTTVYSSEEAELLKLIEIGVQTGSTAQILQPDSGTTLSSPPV
assay.method.text: Ba/F3-KDR (minus IL3) cellular proliferation assay, Alamar Blue
Type: cell-based
Procedure: Ba/F3-KDR (Minus IL3 or Plus IL3) (Cellular Proliferation Assay) In a 384 well plate, 100 n1 of compound dilution in DMSO was sprayed before adding 50 μl cell culture medium (phenol red free RPMI-1640, 10% FBS, 2 mM L-Glutamine and 50 μg/ml Gentamycin) containing 20000 cells per well of Ba/F3-KDR-transfected cells. Cells were put in an incubator at 37° C. and 5% CO2. […]
endpoint.name: BAF3-KDR (MIN IL3) pIC50

Consider the reported BAF3-KDR (MIN IL3) pIC50 for these molecules:
molecule	target.of.assay	BAF3-KDR (MIN IL3) pIC50
COc1cc(OC)cc(N(Cc2ncc[nH]2)c2ccc3ncc(-c4cnn(C)c4)nc3n2)c1 [Compound 24]	Ba/F3-KDR-transfected cells (Homo sapiens, UniProt P35968)	6.22
COCC(O)CN(c1ccc2ncc(-c3cnn(C)c3)nc2n1)c1cc(OC)cc(OC)c1F (single isomer, unassigned) [Compound 58]	Ba/F3-KDR-transfected cells (Homo sapiens, UniProt P35968)	5.97
COc1cc(OC)c(F)c(N(Cc2c[nH]nn2)c2ccc3ncc(-c4cnn(C)c4)nc3n2)c1	Ba/F3-KDR-transfected cells (Homo sapiens, UniProt P35968)	6.02
COc1cc(OC)c(F)c(N(CCNC(C)C)c2ccc3ncc(-c4cnn(C)c4)nc3n2)c1F	Ba/F3-KDR-transfected cells (Homo sapiens, UniProt P35968)	6.35
COC(=O)CN(c1ccc2ncc(-c3cnn(C)c3)nc2n1)c1cc(OC)cc(OC)c1F	Ba/F3-KDR-transfected cells (Homo sapiens, UniProt P35968)	5.31

input: Value lookup for BAF3-KDR (MIN IL3) pIC50; key = COc1cc(OC)c(Cl)c(/N=c2\ccc3ncc(-c4cnn(C)c4)nc3n2CC2CCC(=O)N2)c1Cl (single isomer, unassigned)
output: 5.45

input: // query BAF3-KDR (MIN IL3) pIC50 value for entry COc1cc(/N=c2\ccc3ncc(-c4cnn(C)c4)nc3n2CC2CCC(=O)N2C)c(F)c(OC)c1 (stereo not shown) [Compound 158]
output: 6.16

====

target.of.assay: FGFR1 (h) (Homo sapiens, UniProt P11362)
Sequence (P11362 22-822): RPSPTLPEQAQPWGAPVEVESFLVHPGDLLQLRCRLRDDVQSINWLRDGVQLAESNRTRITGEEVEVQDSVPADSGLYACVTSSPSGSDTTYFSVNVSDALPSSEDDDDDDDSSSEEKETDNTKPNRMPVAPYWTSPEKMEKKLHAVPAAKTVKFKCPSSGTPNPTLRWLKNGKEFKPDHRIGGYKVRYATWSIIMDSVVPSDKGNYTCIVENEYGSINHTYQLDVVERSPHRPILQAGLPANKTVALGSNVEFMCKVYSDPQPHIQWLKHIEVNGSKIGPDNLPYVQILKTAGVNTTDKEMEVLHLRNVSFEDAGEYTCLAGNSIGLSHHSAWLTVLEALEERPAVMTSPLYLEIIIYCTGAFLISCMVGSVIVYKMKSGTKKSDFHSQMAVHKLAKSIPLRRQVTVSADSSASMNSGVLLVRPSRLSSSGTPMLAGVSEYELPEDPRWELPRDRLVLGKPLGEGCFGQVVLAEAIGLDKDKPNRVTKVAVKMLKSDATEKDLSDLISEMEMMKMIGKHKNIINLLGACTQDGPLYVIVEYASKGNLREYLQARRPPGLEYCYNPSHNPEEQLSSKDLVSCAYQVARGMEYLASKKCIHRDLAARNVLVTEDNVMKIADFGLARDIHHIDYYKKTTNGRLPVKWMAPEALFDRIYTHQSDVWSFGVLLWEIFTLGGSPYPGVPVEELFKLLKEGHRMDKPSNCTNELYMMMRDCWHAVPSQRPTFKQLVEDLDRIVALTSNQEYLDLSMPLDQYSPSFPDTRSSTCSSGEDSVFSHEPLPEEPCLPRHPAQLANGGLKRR
assay.method.text: FGFR1 (enzymatic assay), TR-FRET
Format: biochemical
condition.set: read-out: FGFR 1 pIC50 (converted)
In plain terms, low IC50, meaning strictly below 2 nM, gives Satisfied, and everything else gives Not satisfied.

molecule	label.value
COc1cc(OC)cc(N(Cc2noc(C)n2)c2ccc3ncc(-c4cnn(C)c4)nc3n2)c1 [Compound 186]	Not satisfied
COc1cc(OC)c(F)c(N(CC(N)=O)c2ccc3ncc(-c4cnn(C)c4)nc3n2)c1 [Compound 239]	Not satisfied
COc1cc(OC)cc(N(CC2COC2)c2ccc3ncc(-c4cnn(C)c4)nc3n2)c1 [Compound 142]	Not satisfied
COc1cc(OC)c(F)c(N(Cc2ncc[nH]2)c2ccc3ncc(N4CCOCC4)nc3n2)c1 [Compound 291]	Satisfied

Now turn to the next molecule.
input: Does this molecule meet the criterion IC50 < 2 nM? COc1cc(/N=c2\ccc3ncc(-c4cnn(C)c4)nc3n2CC2COC2)c(F)c(OC)c1 [Compound 143]
output: Satisfied
